Value source: the METLIN SMRT retention time set (Domingo-Almenara et al. 2019)

- test summary: gradient 5% acetonitrile 3 min, to 50% in 2 min, to 85% in 15 min, held 3 min, 100 µL/min
- condition parameters: column: Zorbax Extend-C18 2.1 x 50 mm; eluents: water / acetonitrile, 0.1% formic acid
value kind: RP-LC retention time (s)

compound: O=C(Nc1ccccc1C(F)(F)F)N1CCCC1c1nc(-c2ccc(F)cc2F)no1 (configuration not stated)
RP-LC retention time (s): 1030

compound: CC1CCN(c2cc(-n3cnc(C(=O)N4CCCCC4)c3)ncn2)CC1
RP-LC retention time (s): 920

compound: CCOC(=O)COc1cc(-c2ccc(C)cc2)nc2ccc(NC(=O)COc3ccccc3)cc12
RP-LC retention time (s): 902

compound: COc1ccc(N2CCN(C(c3cccs3)C(C)NC(=O)C(=O)N3CCCC3)CC2)cc1 (configuration not stated)
RP-LC retention time (s): 670

compound: O=C(NCc1ccco1)c1nn(-c2ccc(F)cc2)c2ccccc2c1=O
RP-LC retention time (s): 872

compound: Cc1oc(C2CCC2)nc1C(=O)N1CCN(Cc2ccc3c(c2)OCO3)CC1
RP-LC retention time (s): 583

compound: Cc1cccc(Cn2c(=O)n(C)c(=O)c3snc(-c4ccccn4)c32)c1
RP-LC retention time (s): 925

compound: CCC(C(=O)NCCCN1CCN(CC)CC1)n1c2ccccc2c2cnn(C)c(=O)c21 (configuration not stated)
RP-LC retention time (s): 594

compound: C[C@H]1CN(C(=O)c2ccccc2F)C[C@@H]1c1nc(-c2ccccc2)no1
RP-LC retention time (s): 1020

compound: COc1ccc(NC(=O)c2sc(-c3cn(C)c4ncccc34)nc2C)c(C)c1
RP-LC retention time (s): 881

compound: COC(=O)c1c(C)[nH]c(C(=O)N2CCC(CC(=O)NCCCc3ccccc3)CC2)c1C
RP-LC retention time (s): 867

compound: CCN(CC)CCCN(c1ccccc1)C1Cc2ccccc2C1
RP-LC retention time (s): 754

compound: C[C@]12CCC3C(CC[C@H]4C[C@H](O)CC[C@]34C)C1CC[C@@H]2C(=O)CO (some centres not stated)
RP-LC retention time (s): 1020

compound: CCOc1cc(=O)n2c(c1C(=O)Nc1ccc(Cl)cc1F)CCCC2
RP-LC retention time (s): 806

compound: CCC(C)NC(=O)C1CCN(C(=O)c2cc3ccsc3n2Cc2cccc(OC)c2)CC1 (configuration not stated)
RP-LC retention time (s): 633

compound: CC(C)Cn1c(=O)c(N2CCN(C(=O)CCCc3ccccc3)CC2)nc2ccncc21
RP-LC retention time (s): 742

compound: O=C(Nc1cnn(-c2ncc(N3CCCCC3)cn2)c1)c1ccccc1C(F)(F)F
RP-LC retention time (s): 865

compound: CCOc1ccc(NC(=O)Cc2csc3nc(-c4ccccc4)cn23)cc1
RP-LC retention time (s): 815

compound: CC(C)n1cnc2cc(CNC(=O)c3c(F)cccc3Cl)ccc21
RP-LC retention time (s): 617

compound: CC(C)CN1C(=O)CCc2cc(NS(=O)(=O)c3cccc(Cl)c3)ccc21
RP-LC retention time (s): 932

compound: O=C(NC1CCCCC1)c1csc(-c2ccc(N3CCCC3)nc2)n1
RP-LC retention time (s): 739

compound: Cc1cccc(N2CCN(C(=O)C3CCN(Cc4cn(C)c5ccc(Cl)cc45)CC3)CC2)c1C
RP-LC retention time (s): 878

compound: COC(=O)c1cccc(C(=O)Nc2ccc(C)cc2Cl)n1
RP-LC retention time (s): 1100

compound: Cn1ncc(N2CCC(C(=O)Nc3ccccc3)C2)cc1=O (configuration not stated)
RP-LC retention time (s): 648

compound: COC(=O)c1ccc2c(=O)n(-c3ccc(F)c(Cl)c3)c(N3CCN(c4ccccn4)CC3)nc2c1
RP-LC retention time (s): 762

compound: CCc1nn2c(CNC(=O)c3ccc(C)cc3)c(-c3ccccc3)nc2s1
RP-LC retention time (s): 950

compound: CSc1ccc(-c2nc3cc(C)ccn3c2Nc2ccccc2C)cc1
RP-LC retention time (s): 790
